- System: human rhinovirus (HRV) serotypes HRV-2, -1A, 1B, -6, -14, -21, -22, -15, -25, -30, -50, -67, -89, -86 and -41
- test-method-notes: standard plaque reduction assay, panel of human rhinovirus serotypes in HeLa (Ohio) cells
- Format: cell-based
- condition: concentration required to inhibit 50% of the tested serotypes; MIC = 50% plaque reduction; N serotypes: 15 (Ex. 1, 2, 4, 7, 8), 13 (Ex. 3), 2 (Ex. 5, 6)
- Experimental: The MIC values were determined by a standard plaque reduction assay as follows: HeLa (Ohio) cells in monolayers were infected at a concentration of virus to give approximately 80 plaques per monolayer in the virus control (no drug present). The compound to be tested was serially diluted and included in the agar-medium overlay and in some cases, during the adsorption period as well. […]
In this section we review reported MIC50 (Rhinovirus) values for a set of compounds.
Reply numerically in mg/L, unit not repeated.

Example entries begin here.
1. Cc1ccc(N2CCC(COc3ccc(-c4nnn(C)n4)cc3)CC2)nn1 : 13.3
2. Cc1ccc(N2CCC(CCOc3ccc(-c4nnn(C)n4)cc3)CC2)nn1 : 6.64
3. Cc1ccc(N2CCC(CCOc3c(C)cc(-c4nnn(C)n4)cc3C)CC2)nn1 : 16.8
4. Cc1ccc(N2CCC(Oc3c(C)cc(-c4nnn(C)n4)cc3C)CC2)nn1 : 0.92
5. CCCc1ccc(N2CCC(Oc3ccc(-c4nnn(C)n4)cc3)CC2)nn1 : 15.7

Prompt: Annotate the compound CCc1ccc(N2CCC(COc3ccc(-c4nnn(C)n4)cc3)CC2)nn1 with its measured MIC50 (Rhinovirus).
Completion: 13.2

Prompt: Find the measured MIC50 (Rhinovirus) of Cc1ccc(N2CCC(COc3c(C)cc(-c4nnn(C)n4)cc3C)CC2)nn1 and report it.
Completion: 20.1

Prompt: Determine from records and report MIC50 (Rhinovirus) for Cc1ccc(N2CCC(Oc3ccc(-c4nnn(C)n4)cc3)CC2)nn1
Completion: 0.27
